# tested.target: Neuronal acetylcholine receptor; alpha4/beta2 (Rattus norvegicus, UniProt P09483+P12390)
# Sequence (P09483 whole entry): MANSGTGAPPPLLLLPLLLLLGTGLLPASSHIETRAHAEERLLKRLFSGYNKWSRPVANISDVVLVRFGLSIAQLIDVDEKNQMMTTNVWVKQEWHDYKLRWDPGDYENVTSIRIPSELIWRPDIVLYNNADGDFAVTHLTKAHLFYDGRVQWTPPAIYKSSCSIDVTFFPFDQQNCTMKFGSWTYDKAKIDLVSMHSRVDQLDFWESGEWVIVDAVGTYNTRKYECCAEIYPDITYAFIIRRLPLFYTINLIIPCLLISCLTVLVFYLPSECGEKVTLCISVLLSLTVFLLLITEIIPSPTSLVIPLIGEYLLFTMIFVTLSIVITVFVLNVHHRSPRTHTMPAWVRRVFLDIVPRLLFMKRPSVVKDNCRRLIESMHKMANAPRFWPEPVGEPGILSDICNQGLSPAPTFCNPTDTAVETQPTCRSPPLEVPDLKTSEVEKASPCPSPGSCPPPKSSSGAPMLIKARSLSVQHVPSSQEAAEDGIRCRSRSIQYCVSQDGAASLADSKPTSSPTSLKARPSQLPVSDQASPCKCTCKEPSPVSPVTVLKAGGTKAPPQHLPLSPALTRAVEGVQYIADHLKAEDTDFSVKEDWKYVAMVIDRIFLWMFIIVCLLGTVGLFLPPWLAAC
# Sequence (P12390 whole entry): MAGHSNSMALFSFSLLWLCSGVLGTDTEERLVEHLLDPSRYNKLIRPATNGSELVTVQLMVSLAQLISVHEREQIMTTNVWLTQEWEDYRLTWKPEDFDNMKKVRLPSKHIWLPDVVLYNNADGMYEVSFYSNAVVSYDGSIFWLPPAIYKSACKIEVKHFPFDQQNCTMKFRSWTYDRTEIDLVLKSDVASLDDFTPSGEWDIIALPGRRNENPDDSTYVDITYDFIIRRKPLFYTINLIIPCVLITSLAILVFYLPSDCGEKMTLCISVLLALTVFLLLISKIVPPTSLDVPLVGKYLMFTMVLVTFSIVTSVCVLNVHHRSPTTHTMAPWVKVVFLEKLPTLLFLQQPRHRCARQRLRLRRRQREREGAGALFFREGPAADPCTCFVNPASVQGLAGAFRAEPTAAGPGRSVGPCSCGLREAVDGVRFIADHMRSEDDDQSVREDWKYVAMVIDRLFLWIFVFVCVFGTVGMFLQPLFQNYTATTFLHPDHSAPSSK
# protocol: Nicotinic acetylcholine receptor binding activity was determined by ability to displace [3H]- (-) cytisine binding from whole rat brain synaptic membranes.
pKi: −log10 of the molar value.

compound: CN1CCC(Oc2ccccn2)C1 (stereo unspecified)
measurement.qualifier: <
pKi: 5.00

compound: CN1CCC(OCc2cccnc2)C1 (stereo unspecified)
measurement.qualifier: =
pKi: 4.92

compound: CN1CCC[C@H]1COc1ncccn1
measurement.qualifier: =
pKi: 5.91

compound: c1cnc(OCCN2CCCC2)cn1
measurement.qualifier: =
pKi: 6.25

compound: CN1CCC[C@@H]1COc1ccc(Cl)nn1
measurement.qualifier: =
pKi: 7.07

compound: CN1CCC[C@H]1COc1ccc(Cl)nn1
measurement.qualifier: =
pKi: 7.54

compound: CN1CCC[C@@H]1COc1cnccn1
measurement.qualifier: =
pKi: 6.39

compound: Clc1ccc(OC[C@@H]2CCN2)nn1
measurement.qualifier: =
pKi: 7.81

compound: CN1CCC[C@H]1COc1cccnn1
measurement.qualifier: =
pKi: 7.38

compound: c1cncc(OCCN2CCCC2)c1
measurement.qualifier: =
pKi: 6.62

compound: c1ccc(OCCN2CCCC2)nc1
measurement.qualifier: =
pKi: 6.80

compound: CN1CCC[C@H]1COc1ccccn1
measurement.qualifier: =
pKi: 6.31

compound: CN1CC[C@@H](Oc2cccnc2)C1
measurement.qualifier: =
pKi: 8.35

compound: c1ncc(OC[C@@H]2CCN2)cn1
measurement.qualifier: =
pKi: 9.89

compound: CN1CCC[C@H]1COc1cnccn1
measurement.qualifier: =
pKi: 7.79

compound: CN1CCC(Oc2ccc(Cl)nn2)C1 (stereo unspecified)
measurement.qualifier: =
pKi: 7.33

All values here come from ChEMBL document CHEMBL1131987.
